# remaining at 24 h per entry
Assay: Chemical stability of the compound at pH 3 measured for 24 hrs by HPLC analysis
Assay type: physicochemical
Settings: buffer, read-out: Stability

The following compounds have reported results that may help.
                                  structure   observation_type  experimental_value
0  Cc1cc(C(N)=O)c(-c2cccc(OC(=O)NC3CCN(CCc4ccccc4)CC3)c2)o1  remaining at 24 h                 96%
1  NC(=O)c1ccn(-c2cccc(OC(=O)N3CCN(CCCc4ccccc4)CC3)c2)c1  remaining at 24 h               > 99%
2  Cc1cc(C(=O)O)c(-c2cccc(OC(=O)N3CCN(CCCc4ccccc4)CC3)c2)o1  remaining at 24 h               > 99%
3  Cc1cc(C(N)=O)c(-c2cccc(OC(=O)N3CCC(NCCc4ccccc4)CC3)c2)o1  remaining at 24 h               > 99%
4  O=C(Oc1cccc(-c2nn[nH]n2)c1)N1CCN(CCCc2ccccc2)CC1  remaining at 24 h               > 99%

Turning to the following compound.
Request: Item `Cc1cc(C(N)=O)c(-c2cccc(OC(=O)N3CCN(CCCc4ccccc4)CC3)c2)o1` : provide remaining at 24 h
Result: 98%
